Molecular target: RXRγ (Homo sapiens, UniProt P48443)
Sequence (P48443 1-463): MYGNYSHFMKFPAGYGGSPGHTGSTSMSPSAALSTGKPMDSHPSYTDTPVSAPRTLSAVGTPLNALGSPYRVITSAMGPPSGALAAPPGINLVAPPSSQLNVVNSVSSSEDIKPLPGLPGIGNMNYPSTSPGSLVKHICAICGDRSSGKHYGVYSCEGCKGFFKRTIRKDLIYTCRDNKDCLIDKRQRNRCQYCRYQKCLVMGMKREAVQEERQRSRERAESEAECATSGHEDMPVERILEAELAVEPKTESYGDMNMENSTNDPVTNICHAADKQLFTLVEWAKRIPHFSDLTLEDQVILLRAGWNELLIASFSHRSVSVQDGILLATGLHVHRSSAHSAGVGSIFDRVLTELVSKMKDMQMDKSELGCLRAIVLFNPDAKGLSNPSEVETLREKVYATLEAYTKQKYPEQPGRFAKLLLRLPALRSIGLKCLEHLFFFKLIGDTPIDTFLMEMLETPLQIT
Assay: Retinoid activation assay, RXRγ (Schneider SL-3 cells, luciferase reporter)
Conditions: read-out: Activation EC50 RXR γ
Would you mind telling me the reported EC50 of each entry?

Which EC50 is reported for this compound? CCCOc1cc2c(cc1[C@@H]1C[C@@H]1/C=C/C(C)=C/C(=O)O)C(C)(C)CCC2(C)C (racemic)
> 10 µM

Return reported EC50; argument: CCCOc1cc2c(cc1\C(C)=C/C=C/C(C)=C/C(=O)O)C(C)(C)CCC2(C)C
> 10 µM

Which EC50 reading was recorded for the compound CC1=C(/C=C/c2sccc2/C=C/C(C)=C/C(=O)O)C(C)(C)CCC1 ?
≥ 10 µM

Request the reported EC50 associated with CCC1(CC)CCC(C)(C)c2cc(\C(C)=C/C=C/C(C)=C/C(=O)O)ccc21
≥ 10 µM

---

Molecular target: PPARγ/RXRα Heterodimer (Homo sapiens, UniProt P19793)
Construct: co-transfected with plasmids expressing the full length RXR heteropartner receptor
Experiment: PPARγ/RXRα heterodimer activation (transactivation) assay
property_name: pEC50
// pEC50: -log10(molar conc.)

Suppose we examine the molecule CCOc1c(\C(C)=C/C=C/C(C)=C/C(=O)O)cc(C(C)(C)C)cc1C(C)(C)C [Compound 21] ; what pEC50 value has been reported?
8.90

Entry CC(/C=C/C1=C(c2ccc3c(c2)C(C)(C)CCC3(C)C)CCC1)=C\C(=O)O [Compound 12] : reported pEC50 = ?
8.11

What does the record list as pEC50 for CC(/C=C/[C@@H]1C[C@@H]1c1ccc2c(c1)C(C)(C)CCC2(C)C)=C\C(=O)O (stereo in doubt) [Compound 10] ?
8.22

---

Hi there, I'd appreciate the recorded EC50 for every entry that follows.
Target: PPARγ/RXRα Heterodimer (Homo sapiens, UniProt P19793)
Construct: co-transfected with plasmids expressing the full length RXR heteropartner receptor
Sequence (P19793 1-462): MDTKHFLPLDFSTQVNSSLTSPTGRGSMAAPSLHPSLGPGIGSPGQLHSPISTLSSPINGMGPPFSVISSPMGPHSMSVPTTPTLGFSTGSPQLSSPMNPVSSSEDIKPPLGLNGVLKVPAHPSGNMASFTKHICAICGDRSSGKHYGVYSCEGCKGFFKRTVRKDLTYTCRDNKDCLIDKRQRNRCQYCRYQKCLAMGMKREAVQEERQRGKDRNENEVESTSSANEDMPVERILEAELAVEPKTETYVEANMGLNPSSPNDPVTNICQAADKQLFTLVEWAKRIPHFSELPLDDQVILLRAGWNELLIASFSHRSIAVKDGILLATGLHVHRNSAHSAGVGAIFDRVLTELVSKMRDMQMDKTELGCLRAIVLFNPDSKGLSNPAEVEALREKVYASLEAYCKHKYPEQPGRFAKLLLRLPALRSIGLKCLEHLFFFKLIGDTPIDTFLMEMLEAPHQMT
Sequence (P37231 1-505 partner): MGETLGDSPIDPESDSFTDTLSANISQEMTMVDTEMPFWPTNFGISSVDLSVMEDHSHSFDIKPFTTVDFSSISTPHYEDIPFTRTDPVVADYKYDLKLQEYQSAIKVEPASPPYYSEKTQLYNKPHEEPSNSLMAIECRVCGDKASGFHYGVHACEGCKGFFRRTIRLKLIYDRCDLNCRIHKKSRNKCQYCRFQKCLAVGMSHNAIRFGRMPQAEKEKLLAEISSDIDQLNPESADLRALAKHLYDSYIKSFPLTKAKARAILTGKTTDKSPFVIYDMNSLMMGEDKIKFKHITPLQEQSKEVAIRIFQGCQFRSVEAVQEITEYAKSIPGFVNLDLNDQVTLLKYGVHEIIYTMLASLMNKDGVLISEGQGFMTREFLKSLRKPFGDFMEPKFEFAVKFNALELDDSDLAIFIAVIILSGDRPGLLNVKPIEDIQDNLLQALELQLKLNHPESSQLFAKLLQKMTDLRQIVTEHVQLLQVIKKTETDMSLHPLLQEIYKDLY
Assay: PPARγ/RXRα heterodimer activation (transactivation) assay

Lab request: please report EC50 under test system PPARγ/RXRα Heterodimer (Homo sapiens, UniProt P19793) for CCOc1c([C@@H]2C[C@@H]2/C=C/C(C)=C/C(=O)O)cc(C(C)(C)C)cc1C(C)(C)C (racemic)
> 10 µM

Lab note: need EC50 with PPARγ/RXRα Heterodimer (Homo sapiens, UniProt P19793) for entry CCCOc1c([C@@H]2C[C@@H]2/C=C/C(C)=C/C(=O)O)cc(C(C)(C)C)cc1C(C)(C)C (racemic) , please look it up.
> 10 µM

What is its EC50 for PPARγ/RXRα Heterodimer (Homo sapiens, UniProt P19793)? Entry: CCCCOc1c(\C(C)=C/C=C/C(C)=C/C(=O)O)cc(C(C)(C)C)cc1C(C)(C)C
> 10 µM
